Values were extracted from the supplement of paper PMC12645437.

Target: T1, CRBN, Q96SW2;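 further: pooled lentiviral library of zinc finger degron-EGFP fusions in mCherry-positive Jurkat cells, FACS-sorted after compound exposure, with degron abundance counted by next-generation sequencing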
T1 chain: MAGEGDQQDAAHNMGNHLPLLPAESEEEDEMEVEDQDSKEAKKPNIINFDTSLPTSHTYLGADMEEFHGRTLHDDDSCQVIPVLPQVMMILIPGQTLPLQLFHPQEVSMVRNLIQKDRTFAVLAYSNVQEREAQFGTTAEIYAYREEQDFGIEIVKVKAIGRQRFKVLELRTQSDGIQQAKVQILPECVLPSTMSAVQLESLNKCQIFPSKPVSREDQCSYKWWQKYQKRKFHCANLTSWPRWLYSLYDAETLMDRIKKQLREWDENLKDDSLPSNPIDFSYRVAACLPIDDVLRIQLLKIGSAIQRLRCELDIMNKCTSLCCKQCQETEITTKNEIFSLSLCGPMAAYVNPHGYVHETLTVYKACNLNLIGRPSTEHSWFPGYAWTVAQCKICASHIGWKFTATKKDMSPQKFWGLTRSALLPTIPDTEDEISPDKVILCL
Assay: log2 fold change of degron read counts, EGFP-low vs EGFP+ sorted cells (limma voom), compound-induced degradation; higher = more compound-induced degradation of the degron-EGFP fusion; degrons are variants of IKZF1/3 zinc finger 2; compound dose not given here
Details: Jurkat; 18 h; compound: compound 19 (5-tert-butyl-thalidomide)
Whole data set: some 8,300 sequences, median “log2 fold change of degron read counts, EGFP-low vs EGFP+ sorted cells (limma voom), compound-induced degradation” near -1.1, cut for the highest 2% near 3.2. What follows is part of a selection rich in the highest values, with near analogues and random picks from the rest.
Measure Name: log2 fold change of degron read counts
Answer as a number with no unit attached.

Ordered Residues: FVCDVCGADFTQKGNLLRHIKL [46F_47V_49D_50V_52G_53A_54D_55F_67L_, Q9UKT9]
log2 fold change of degron read counts: -2.64
//
Ordered Residues: FRCEVCGATFTQKGNLLRHIKL [46F_47R_49E_50V_52G_53A_54T_55F_67L_, Q9UKT9]
log2 fold change of degron read counts: -0.885
//
Ordered Residues: FCCEVCGATFTQKGNLLRHIKL [46F_47C_49E_50V_52G_53A_54T_55F_67L_, Q9UKT9]
log2 fold change of degron read counts: 1.77

With those in mind, consider the next sequence.
Form field: reported log2 fold change of degron read counts of FACEVCGATFTQKGNLLRHIKL [46F_47A_49E_50V_52G_53A_54T_55F_67L_, Q9UKT9]
3.32
